- Test system: Yap1 mRNA
- ASSAY_NAME: Antisense inhibition of human Yap1 in SNU-449 cells by modified oligonucleotides, single dose (Example 5, RTS36584)
- Format: cell-based
- CONDITION_INFO: Table 50; Yap1 mRNA remaining as percent of untreated control (UT), SNU-449 cells, single dose
- Description: Modified oligonucleotides with additional chemistry modifications were designed to target a Yap1 nucleic acid and were tested for their effect on Yap1 mRNA level in SNU-449 cells. […] After a treatment period of approximately 48 hours, RNA was isolated from the cells and Yap1 mRNA levels were measured by quantitative real-time RTPCR. […] Yap1 mRNA levels were normalized to total RNA content, as measured by RIBOGREEN®. […]
Strand notation (5' to 3'): a small letter for the sugar, then the base; units joined by * are phosphorothioate-linked, units joined directly phosphodiester-linked; [ ] holds rarer units or linkages, { } end groups; capitals alone tell only the bases. e = 2'-O-(2-methoxyethyl) (MOE); k = constrained ethyl (cEt); [5mC] = 5-methylcytosine; d = 2'-deoxy (DNA); m = 2'-O-methyl
READOUT_NAME: YAP1 (% UT)

# query: YAP1 (% UT) | item 1198612 (antisense kA*kA*kG*dT*dG*dT*dA*dT*dG*dT*d[5mC]*dA*kG*kA*kA*eG) [Compound 1198612] | system: Yap1 mRNA
5 % UT

Please answer likewise for 1197247 (antisense kA*kA*kG*d[5mC]*mA*d[5mC]*dT*dT*dT*dT*dA*d[5mC]*dA*kT*kT*kA) [Compound 1197247]
47 % UT

Continue with 1198606 (antisense kT*kG*kT*dA*dA*dT*dA*dT*dT*dG*d[5mC]*dA*kA*kT*k[5mC]*eT) [Compound 1198606]
25 % UT

Now try 1198563 (antisense kG*kA*kG*dG*dT*dA*dT*dA*dA*d[5mC]*dT*dG*kG*kG*k[5mC]*eA) [Compound 1198563] .
53 % UT

Next entry: 1198599 (antisense k[5mC]*kA*kA*d[5mC]*dT*d[5mC]*dT*dT*dA*dT*dA*dT*kG*kG*kT*eT) [Compound 1198599]
90 % UT

Moving on to 1198564 (antisense kA*kA*k[5mC]*dA*d[5mC]*dT*dG*dA*dG*dG*dT*dA*kT*kA*kA*e[5mC]) [Compound 1198564]
44 % UT

Same again, this time with 1198591 (antisense kA*kT*kT*d[5mC]*dA*dG*dA*dT*dT*dT*dA*dG*kG*kA*kT*eG) [Compound 1198591]
106 % UT

Also check 1197286 (kA*kT*kA*dT*mU*dA*dG*dA*dG*dT*dA*dT*dG*kT*kG*kG) [Compound 1197286]
43 % UT

Repeat with 1198624 (kA*k[5mC]*kT*dA*dA*dG*dT*dA*dA*dG*dG*dT*kT*kT*k[5mC]*e[5mC]; antisense) [Compound 1198624]
20 % UT

Query 1198560 (antisense kT*kA*kT*dA*dA*d[5mC]*dT*dG*dG*dG*d[5mC]*dA*kA*kA*kT*eT) [Compound 1198560] next
53 % UT

Also 1198588 (antisense kA*kG*kA*dT*dT*dT*dA*dG*dG*dA*dT*dG*k[5mC]*kA*kT*eG) [Compound 1198588] , if possible.
32 % UT

// next record 1197294 (kG*k[5mC]*kA*d[5mC]*mU*dT*dT*dT*dA*d[5mC]*dA*dT*dT*kA*kG*kG; antisense) [Compound 1197294]
25 % UT

Again, but for 1197293 (k[5mC]*kA*k[5mC]*dT*mU*dT*dT*dA*d[5mC]*dA*dT*dT*dA*kG*kG*kA; antisense) [Compound 1197293]
94 % UT

---

- System: Yap1 mRNA
- ASSAY_NAME: Antisense inhibition of human Yap1 in A-431 cells by cEt gapmers, single dose (Example 3, RTS36584)
- Assay type: cell-based
- CONDITION_INFO: Table 10; A-431 cells, 5,000 cells per well, free uptake, 2,000 nM oligonucleotide, approx. 48 hours; primer probe set RTS36584; Yap1 mRNA normalized to RIBOGREEN, percent of untreated control
Strand notation (5' to 3'): a small letter for the sugar, then the base; units joined by * are phosphorothioate-linked, units joined directly phosphodiester-linked; [ ] holds rarer units or linkages, { } end groups; capitals alone tell only the bases. k = constrained ethyl (cEt); [5mC] = 5-methylcytosine; d = 2'-deoxy (DNA)
Use YAP1 (% UTC) to assign classes; range list: interval 1 = under 20 % UTC, interval 2 = from 20 % UTC up to 60 % UTC, interval 3 = 60 % UTC and over

Categorize the following entry: 958637 (antisense k[5mC]*k[5mC]*kG*d[5mC]*dA*dG*dA*dG*dA*dG*dA*dA*dA*k[5mC]*kT*k[5mC]) [Compound 958637]
interval 3

How about 958707 (antisense kT*k[5mC]*kA*dA*dT*dG*d[5mC]*dT*dG*dT*dA*dT*d[5mC]*kA*kG*kA) [Compound 958707] ?
interval 2

Next record, please: 958437 (antisense kA*kG*kG*d[5mC]*dA*d[5mC]*dT*d[5mC]*dG*dG*dA*d[5mC]*d[5mC]*kT*kG*k[5mC]) [Compound 958437]
interval 3

Would you kindly repeat that for 958582 (kA*kA*kT*d[5mC]*dT*dG*d[5mC]*dT*dG*dA*dT*dA*dT*kA*kT*kA; antisense) [Compound 958582] ?
interval 2

Another: 958717 (antisense kA*kA*kT*dA*dA*dT*dA*dT*dA*dG*d[5mC]*dT*dT*kA*k[5mC]*kG) [Compound 958717]
interval 1

Queued: 958802 (antisense kA*kG*kA*dT*dA*dA*dT*d[5mC]*dA*dT*d[5mC]*d[5mC]*dT*k[5mC]*kA*kA) [Compound 958802]
interval 2

Further, for 958642 (antisense kG*kA*k[5mC]*dA*dT*d[5mC]*dA*dA*dT*dT*dT*d[5mC]*dA*kG*kT*k[5mC]) [Compound 958642] ?
interval 3

Subsequent entry: 958442 (antisense kG*kG*kA*dG*dA*dA*dG*d[5mC]*dG*dG*d[5mC]*dG*dA*k[5mC]*kG*kG) [Compound 958442]
interval 2

And then 958727 (antisense kA*kT*k[5mC]*dT*dG*dT*d[5mC]*dA*dG*dT*dT*dA*dT*k[5mC]*k[5mC]*kT) [Compound 958727] , what is it?
interval 1

Same question, 958647 (kT*kA*kG*dG*dA*dA*dG*dT*dT*dG*dT*dT*dG*kA*k[5mC]*k[5mC]; antisense) [Compound 958647] this time
interval 1

---

- Tested on: Yap1 mRNA
- ASSAY_NAME: Dose-dependent inhibition of human Yap1 in A-431 cells (Example 8, 10,000 cells per well, RTS4814)
- Type: cell-based
- CONDITION_INFO: A-431 cells, free uptake, approximately 48 hours, RTS4814; linear regression on log/linear plot
pIC50: −log10 of the molar value. Strand notation (5' to 3'): a small letter for the sugar, then the base; units joined by * are phosphorothioate-linked, units joined directly phosphodiester-linked; [ ] holds rarer units or linkages, { } end groups; capitals alone tell only the bases. k = constrained ethyl (cEt); [5mC] = 5-methylcytosine; d = 2'-deoxy (DNA)
READOUT_NAME: pIC50

Which pIC50 value is on record for 1074318 (antisense kG*kG*kA*dG*dA*dA*dT*dT*dT*dG*d[5mC]*dT*dG*kT*kG*k[5mC]) [compound 1074318] ?
> 7.70

Try 1075781 (k[5mC]*kA*kT*dA*dT*dA*dT*dT*dG*dT*dG*dA*d[5mC]*kT*kT*k[5mC]; antisense) [compound 1075781] next.
> 7.70

Param item: 1076396 (antisense k[5mC]*kT*kA*dT*dA*dT*dT*dT*dG*dA*dG*d[5mC]*d[5mC]*kA*kT*kG) [compound 1076396]
7.40

# iterate: 1076549 (kG*kT*kG*d[5mC]*dA*dA*dA*dA*dT*dA*d[5mC]*d[5mC]*dT*kT*kT*kG; antisense) [compound 1076549]
> 7.70

Please give the result for 1074414 (kA*kA*k[5mC]*dT*dG*dT*dG*dA*dA*dA*dG*dA*dG*kG*kT*k[5mC]; antisense) [compound 1074414] too.
7.00

And for 1074564 (DNA k[5mC]*kT*kG*dA*dA*dT*dT*d[5mC]*d[5mC]*dA*dA*dT*d[5mC]*kG*kA*kG) [compound 1074564] ?
> 7.70

---

- Tested on: Yap1 mRNA
- ASSAY_NAME: Antisense inhibition of human Yap1 in A-431 cells by cEt gapmers, single dose (Example 2, RTS4814)
- Type: cell-based
- CONDITION_INFO: Yap1 mRNA as percent of untreated control; A-431 cells; 3-10-3 cEt gapmers targeting SEQ ID NO.: 1, and 2; Table 30
Strand notation (5' to 3'): a small letter for the sugar, then the base; units joined by * are phosphorothioate-linked, units joined directly phosphodiester-linked; [ ] holds rarer units or linkages, { } end groups; capitals alone tell only the bases. k = constrained ethyl (cEt); [5mC] = 5-methylcytosine; d = 2'-deoxy (DNA)
Assign classes using reported YAP1 (% UTC) values and the ranges group A: < 40 % UTC; group B: ≥ 40 % UTC and < 80 % UTC; group C: ≥ 80 % UTC, please.

Dear colleague, I would appreciate it if you could identify the bin for 1075248 (kG*kT*kA*d[5mC]*dA*dA*dA*dA*dA*dG*d[5mC]*dG*dG*kT*k[5mC]*kG; antisense) [compound 1075248] and reply at your convenience.
group B

// same read-out, input: 1075984 (kT*kA*kT*d[5mC]*dG*dA*dA*dA*dA*dG*d[5mC]*dA*dA*kA*k[5mC]*kT; antisense) [compound 1075984]
group B

Then this substance: 1074864 (k[5mC]*kA*kT*dA*dT*dG*dA*dG*d[5mC]*dA*dT*dG*d[5mC]*kT*k[5mC]*kT; antisense) [compound 1074864]
group B

Another substance to check: 1074928 (antisense kA*kT*kA*d[5mC]*dA*dA*d[5mC]*dA*dG*dG*d[5mC]*d[5mC]*dT*kG*k[5mC]*kA) [compound 1074928]
group C

Input 1074896 (antisense kG*k[5mC]*kA*dA*dA*dG*dT*dT*d[5mC]*d[5mC]*dT*dA*dT*kG*k[5mC]*kT) [compound 1074896]
group C

How about this substance: 1076080 (k[5mC]*kA*kT*dT*dA*dG*d[5mC]*dA*dG*dT*dT*d[5mC]*dA*k[5mC]*kT*kA; antisense) [compound 1076080]
group B

Next entry: 1075664 (antisense kG*k[5mC]*kT*dA*dA*dA*dT*dA*dG*dG*dT*dG*dG*kT*kT*kA) [compound 1075664]
group C

Now try 1075088 (kA*kT*kT*dT*dA*dT*dA*dG*dT*d[5mC]*dA*dG*dG*kT*kT*k[5mC]; antisense) [compound 1075088] .
group A

Also check 1076112 (kA*kT*kT*d[5mC]*dA*dA*dA*dA*d[5mC]*d[5mC]*dA*d[5mC]*dG*kG*kA*kA; antisense) [compound 1076112]
group C

Next record, please: 1074736 (kT*k[5mC]*kA*dG*dT*dA*d[5mC]*dA*dG*dA*dG*dG*dG*k[5mC]*kA*kT; antisense) [compound 1074736]
group A
